# Tested on: OVCAR-8 ovarian
# assay.explanation: NCI-60 one-dose screen, 48 h (100 = growth as untreated, 0 = no growth, -100 = all killed)
# experimental.parameters: 10 µM unless noted
This is part of a sample that, as a whole, favours compounds with a hit. Of some 83,000 tested, about 20% had one in any assay.
Please respond with reported growth for every item in the list.
Give bare numbers, in %.

Study these solved cases before continuing.
CCOC(=O)N1C2CCC(C2)N1C(=O)OCC	101
Cc1cc(O)ccc1Sc1ccccc1[N+](=O)[O-]	97.1

Below is a list of compounds. For each, state its recorded growth.
1. CC1=C(/C=C/C(C)=C/C=C(C(=O)O)\C(C)=C\C(=O)O)C(C)(C)CCC1
2. COc1cccc(N2CCN(c3ncnc4cc[nH]c34)CC2)c1
3. NC(N)=N/N=C/c1cccc(Cl)c1Cl
4. CC(C)=CC[C@@H]1CC2(CC=C(C)C)C(=O)C(OC3(C(=O)c4ccccc4)C(=O)C4(CC=C(C)C)C[C@@H](CC=C(C)C)C(C)(C)C(CC=C(C)C)(C4=O)C3=O)(C(=O)c3ccccc3)C(=O)C(CC=C(C)C)(C2=O)C1(C)C (stereo partly specified)

1: 99.4; 2: 40.3; 3: 87.5; 4: 1.06

###

# Tested on: NCI-H322M lung
# assay.explanation: NCI-60 one-dose screen, 48 h (100 = growth as untreated, 0 = no growth, -100 = all killed)
# experimental.parameters: 10 µM unless noted
Compounds without any hit were thinned out: in the full panel of roughly 83,000, 20% have a hit.
Please respond with reported growth for every item in the list.
Answers are plain numbers, in %.

Study these solved cases before continuing.
CNCCCn1c2c(c3ccc(Cl)cc3c1=O)C(=O)c1cc(OC)cnc1-2	61.8
O=C(/C=C/c1ccc(F)cc1)N1CCN(C(=O)/C=C/c2ccc(C(F)(F)F)cc2)CC1	106
COc1ccc(Oc2nc(Nc3ccc(N4CCOCC4)cc3)ncc2NC(=O)Nc2cccc(OC)c2)cc1	53.3

Below is a list of compounds. For each, state its recorded growth.
1. Cc1cc([N+](=O)[O-])c(C)cc1N
2. NS(=O)(=O)c1ccc(CCn2c(SCC(=O)N/N=C/c3ccccc3O)nc3ccccc3c2=O)cc1

[107, 77.5]

###

# Tested on: NCI/ADR-RES ovarian
# assay.explanation: NCI-60 one-dose screen, 48 h (100 = growth as untreated, 0 = no growth, -100 = all killed)
# experimental.parameters: 10 µM unless noted
Compounds without any hit were thinned out: in the full panel of roughly 83,000, 20% have a hit. The source made the active and inactive calls. How the source made its calls: active means growth percent below 10; inactive means the rest.
Please respond with reported growth for every item in the list.

COc1ccc(/C(C)=N/NC(=O)c2ccc(S(C)(=O)=O)cc2)cc1OC	113% (inactive)
Cc1cc(O)ccc1Sc1ccccc1[N+](=O)[O-]	83% (inactive)
Clc1ccc(-c2cnc3c(-c4ccnc(N5CCNCC5)c4)cnn3c2)cc1	-0.0998% (active)
CCCCCCCCOC(=O)C(C)OC(=O)OCCOCCOC(=O)OC(C)C(=O)OCCCCCCCC (stereo unspecified)	101% (inactive)
Cc1ccc(C(=O)CC(=O)C(F)(F)C(F)(F)C(F)(F)F)s1	105% (inactive)
O=C(O)c1ccccc1Oc1cc(-c2ccco2)nc(OCCN2CCOCC2)n1	99.7% (inactive)

Below is a list of compounds. For each, state its recorded growth.
1. COc1ccc(NC(=O)Cn2c(=O)sc3c(-c4ccc(Cl)cc4)cc(-c4ccc(Cl)cc4)nc32)cc1
2. Nc1c(N)c2ccccc2c2ccccc12
3. CC(C)c1nc2ccccc2n1CC(=O)N/N=C/c1cccc(O)c1

1: 89.2% (inactive); 2: 101% (inactive); 3: 109% (inactive)

###

# System: SF-295 CNS
# assay.explanation: NCI-60 one-dose screen, 48 h (100 = growth as untreated, 0 = no growth, -100 = all killed)
# experimental.parameters: 10 µM unless noted
# Procedure: Cells are grown in 96 well plates and exposed to the test compound for 48 hours. Compounds are tested at a single concentration, which is 10^-5 M for most compounds. The reported endpoint is percent growth (GI% or GIPRCNT), where numbers from 0 - 100% represent growth inhibition, and numbers from -100% - 0 represent cell death. For example, a value of 40 represents 60% growth inhibition. A value of 0 means no net growth occurred over the course of the experiment. […]
About 83,000 compounds went through this panel and 20% of them were active in at least one assay; those are over-represented in the sample as a whole.
Checkbox rule: growth lower than 30% = YES; growth not lower than 30% = NO.

Reference set (6 entries):
CCCCCCCCCCCCCCCCCC(=O)[O][Sn]([CH2]CCC)([CH2]CCC)[CH2]CCC	YES
O=C(O)c1ccccc1Oc1cc(-c2ccco2)nc(OCCN2CCOCC2)n1	NO
CCS(=O)(=O)Nc1cccc(Nc2c3cccc(C)c3nc3c(C)cccc23)c1OC	YES
O=S(=O)(Cc1ccc(Cl)cc1Cl)c1ccc(Cl)cc1	YES
CC(C)(C)[Si](C)(C)OC1[C@@H](CNC(N)=O)O[C@@H](n2cnc3c(NC(=O)Nc4ccccc4)ncnc32)[C@H]1O[Si](C)(C)C(C)(C)C (stereo not given in full)	NO
COc1ccc(Oc2nc(Nc3ccc(N4CCOCC4)cc3)ncc2NC(=O)Nc2cccc(OC)c2)cc1	NO

Criterion: growth strictly below 30%. Is it met by "COc1ccc2nc3cc(Cl)ccc3c(NC(=O)CSc3ccc(Cl)cc3)c2c1" ? YES

Criterion: growth strictly below 30%. Is it met by "Cc1cccc(/C=N/n2c(-c3ccc(Cl)cc3)nc3c(Br)cc(Br)cc3c2=O)c1" ? NO

Criterion: growth strictly below 30%. Is it met by CCCCCCCCCCCCC1CCC(=O)O1 (stereo not given) ? NO

Criterion: growth strictly below 30%. Is it met by COc1cc(C2CC(c3ccc(Cl)cc3)=NN2C=O)ccc1Oc1ccnc2cc(Cl)ccc12 (stereo not given) ? NO

Criterion: growth strictly below 30%. Is it met by "COc1cc(-c2nn(C(=O)NCCN3CCN(C)CC3)cc2-c2ccncc2)ccc1Cl" ? NO

Criterion: growth strictly below 30%. Is it met by "COc1cc(Nc2ncccc2/C=C/C(=O)c2cc(OC)c(OC)c(OC)c2)cc(OC)c1OC" ? NO

Criterion: growth strictly below 30%. Is it met by "C=C1C(=O)O[C@H]2[C@H]1CC/C(COC(=O)NCc1cccc(OC)c1)=C\CC[C@@]1(C)O[C@@H]21" ? NO

Criterion: growth strictly below 30%. Is it met by O=C1OCC2=C1C(c1ccccc1)c1cc3c(cc1N2CCO)CCC3 (stereo not given) ? YES

###

# Test system: UO-31 renal
# assay.explanation: NCI-60 one-dose screen, 48 h
# experimental.parameters: 10 µM unless noted
# Experimental: Growth inhibition of the UO-31 human tumor cell line is measured as a screen for anti-cancer activity. Cells are grown in 96 well plates and exposed to the test compound for 48 hours. Compounds are tested at a single concentration, which is 10^-5 M for most compounds. The reported endpoint is percent growth (GI% or GIPRCNT), where numbers from 0 - 100% represent growth inhibition, and numbers from -100% - 0 represent cell death. For example, a value of 40 represents 60% growth inhibition. […]
The panel holds about 83,000 compounds, 20% with a hit somewhere; the sample as a whole holds those more often. Calls of active or inactive are those of the source. Rule for the calls: active = growth percent below 10; inactive = the rest.
Returns: one label drawn from y for active, n for inactive

ClCc1c(Cl)c(Cl)c(Cl)c(CCl)c1Cl	y
COc1cccc(-c2nc3sccn3c2-c2ccnc(NCCN3CCCNS3(=O)=O)n2)c1	n
Cc1csc(N/N=C/c2ccncc2)n1	n
COc1cc(OC)c2sc(-c3ccc(-n4cncc4-c4ccc(OC)c(N)c4)cc3)nc2c1	n

GET /call?item= "O=C1Nc2ccccc2/C1=C\c1nc(C2CCN(S(=O)(=O)c3ccc(F)cc3)CC2)n2ccccc12" returns the recorded outcome of this test. n

GET /call?item= "CS(=O)(=O)c1ccc(C(=O)Nc2ccc(Cl)c(-c3ccccn3)c2)c(Cl)c1" returns the recorded outcome of this test. n

GET /call?item= "Cc1ccc(NC(=O)c2cc(NCc3cc(O)ccc3O)ccc2O)cc1" returns the recorded outcome of this test. n

GET /call?item= "O=C(N/N=C\c1cc(Br)ccc1O)c1ccncc1" returns the recorded outcome of this test. n

GET /call?item= "CCOC(=O)Nc1ccc2nc(N3CCCCCC3)sc2c1" returns the recorded outcome of this test. n

GET /call?item= CC(C)(C)c1nn(-c2ccccc2)c2c1C(=O)CSC(c1ccccc1Cl)N2 (stereo unspecified) returns the recorded outcome of this test. n

GET /call?item= "O=C1/C(=C/c2ccccc2)SC(=Nc2ccccc2)N1Nc1ccccc1" returns the recorded outcome of this test. n

GET /call?item= "COc1ccccc1/C=N\Nc1ccc([N+](=O)[O-])cn1" returns the recorded outcome of this test. n

GET /call?item= CCCCCCCCCCCC1=NC(C)(C)CN1CC(C)O (stereo unspecified) returns the recorded outcome of this test. n

GET /call?item= "COc1ccc(-c2nc3ccccc3n3cccc23)cc1" returns the recorded outcome of this test. n

GET /call?item= Nc1ncnc2c1N=C(c1ccc3c(c1)OCO3)CC(c1ccc(Cl)cc1)N2 (stereo unspecified) returns the recorded outcome of this test. n
